FYI, the data here is from PubChem BioAssay AID588774.

List of inhibition values.
Tested on: LYPLA2
Test: competitive ABPP of pPAFAH versus proteome hydrolases – biochemical, gel-based, FP-Rh fluorescence, complex proteome, SAR compounds, selectivity assay for pPAFAH inhibitor project, SAR follow-up (AID 588774);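 further: 0% = DMSO-only band intensity and 100% = blank gel background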
Conditions: at 10 µM, stronger effect = higher value
A number alone suffices; assume %.

# molSmiles, unitAnnotation, inhibition
measured = [
    ("Cc1cc(N2CCN(C(=O)Oc3ccc(-c4ccccc4)cc3)CC2)c2ccccc2n1", "%", 0),
    ("O=C(Oc1noc2cc(Cl)ccc12)N1CCOCC1", "%", 0),
    ("Cc1cc(N2CCN(C(=O)Oc3ccc(C(F)(F)F)cc3)CC2)c2ccccc2n1", "%", 0),
    ("Cc1cc(N2CCN(C(=O)n3ncc(-c4ccccc4)n3)CC2)c2ccccc2n1", "%", 99),
    ("Cc1cc(N2CCN(C(=O)Oc3noc4cc(Cl)ccc34)CC2)c2ccccc2n1", "%", 0),
]

Recorded inhibition of Cc1cc(N2CCN(C(=O)n3ncc(-c4ccc(Cl)c(Cl)c4)n3)CC2)c2ccccc2n1 , please. 61

Now the compound Cc1cc(N2CCN(C(=O)Oc3ccc([N+](=O)[O-])cc3)CC2)c2ccccc2n1 0

Entry to check: Cc1cc(N2CCN(C(=O)Oc3ccc(-n4cccc4)cc3)CC2)c2ccccc2n1 0

Next record, please: Cc1cc(N2CCN(C(=O)Oc3ccc(C4CCCC4)cc3)CC2)c2ccccc2n1 0

What would you report for Cc1cc(N2CCN(C(=O)n3ncc(-c4ccc([N+](=O)[O-])cc4)n3)CC2)c2ccccc2n1 ? 100
